- target: Calmodulin-1 (Homo sapiens) (UniProt P0DP23)
- experiment: CALM1 binders on microarrays, EGTA buffer, profiling panel, biochemical, small-molecule microarray, Cy5-labelled CALM1 (AID 1111);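 note: labelled calmodulin applied in Tris saline Tween buffer holding calcium plus EGTA and DTT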
- assay context: Cy5-CALM1 binding fluorescence, higher = more signal
measure name: composite z-score
Give a plain numeric answer without units written out.

Lab note: COC(=O)[C@@]1(Cc2ccc(OC)cc2)[C@H]2c3cc(C(=O)N4CCCC4)n(Cc4cccc5ccccc45)c3C[C@H]2CN1C(=O)c1ccccc1 gave composite z-score of 1.38

Lab note: CN1C(=O)C2C=CC(C(O)c3cccc4ccccc34)N(N3CCCCC3)C2C1=O (centres undefined) gave composite z-score of 2.23

Lab note: [N-]=[N+]=Nc1ccccc1[C@H]1OC(c2ccc(OCCCO)cc2)=N[C@@]1(Cc1ccccc1)C(=O)N1CCCCC1 gave composite z-score of 1.53

Lab note: CN(C)CCCNC(=O)[C@@]1(c2ccc([N+](=O)[O-])cc2)CC(=O)N(CC23CC4CC(CC(C4)C2)C3)[C@@H]1c1ccc(CO)cc1I gave composite z-score of 0.307
